- method.summary: qHTS assay for identifying genotoxic compounds that show differential cytotoxicity against isogenic chicken DT40 cell lines with known DNA damage response pathways - Rev3 mutant cell line (AID 743014); also: nearly all actives have a fitted effect of over 55% in size
- measurement.conditions: chicken DT40 Rev3-/- viability, CellTiter-Glo, 40 h; series mostly up to 68.4 µM
- Text: National Center for Advancing Translational Sciences [NCATS] NIH Chemical Genomics Center [NCGC] U.S. Environmental Protection Agency [EPA] National Institutes of Environmental Health Sciences [NIEHS] National Toxicology Program [NTP] U.S. Food and Drug Administration [FDA] DNA repair pathways play a critical role in cellular homeostasis by repairing DNA damage induced by endogenous processes and xenobiotics. […]
Inconclusive results are not listed. Active and inactive are the calls of the source. Calls follow the shape of the dose curve; as a rule, active = well fitted cell-killing curve with a large enough effect in the repeat runs; inconclusive = weak or mixed curves, or effect the other way; inactive = no such curve, though single readings can be large or run the other way.
# output must be one of active, inactive

Below are worked cases with known answers.
{"columns": ["molecule", "assigned.label"],
 "data": [
  ["CCC(Br)(CC)C(=O)NC(N)=O", "active"],
  ["O=C(O)CC(Cl)C(=O)O (stereo not drawn)", "inactive"],
  ["C[C@H]1CNCCc2ccc(Cl)cc21", "active"],
  ["CC[C@H]1C[C@H]2[C@@H]3CCC4=CC(=O)CC[C@@H]4[C@H]3CC[C@]2(C)[C@H]1O", "active"],
  ["Oc1ccc(Cl)c(Cl)c1Cl", "inactive"],
  ["Cc1ccc(-c2c(Cl)nc(C#N)n2S(=O)(=O)N(C)C)cc1", "active"],
  ["C#CCOC(C(=O)OCCN(C)C)(c1ccccc1)c1ccccc1", "inactive"],
  ["CCOP(=O)(OCC)Oc1ccc([N+](=O)[O-])cc1", "inactive"]
]}

Problem: Call for entry "O=C(NC(=O)c1c(F)cccc1F)Nc1cc(Cl)c(Oc2ncc(C(F)(F)F)cc2Cl)c(Cl)c1" :
Result: active
